Tested on: CHO-K1 human α11-mediated rat tail type I collagen gel contraction
Experiment: Collagen gel contraction assay
Assay type: cell-based
Details: compared to untreated condition
attribute_measured: Inhibition of CHO-hu α11-mediated collagen gel contraction

molecule	result
9-E16: mouse anti-α11β1 mAb; VH SEQ ID NO: 111, VL SEQ ID NO: 112 (antibody, V domains shown) VH: EVQLQQSGPELVKPGASVKISCKASGYTFTDYYMHWVKQKPGQGLEWIGEIYPGSGNPYYNEKFKGKATLTADKSSSSAYMQLSSLTSEDSAVYFCARTSYGRVGTGFAYWGQGTLVTVSA VL: NFVMTQTPLSLPVSLGDQASISCRSSQSLLHSNGNTYLHWYLQKPGQSPKLLIYKVSNRFSGVPDRFSGSGSGTDFTLKINRVETEDLGIYFCSQSSHVPTFGAGTKLELK	inhibited
1994_01_C07: fully human anti-α11β1 mAb from phage display; HCDR3 SEQ ID NO: 267, LCDR3 SEQ ID NO: 271 (antibody, V domains shown) VH: QVQLVQSGAEVKKPGASVKVSCKASGYTFTSYGISWVRQAPGQGLEWMGWISAYNGNTNYAQKLQGRVTMTTDTSTSTAYMELRSLRSDDTAAYYCARVTGITGTTIDPWGQGTMVTVSS VL: DIQMTQSPSSLSASVGDRVTITCRASQSISSYLNWYQQKPGKAPKLLIYDASSLESGVPSRFSGSGSGTEFTLTISSLQPDDFAVYYCQQYNNWPQTFGQGTKVEIK	inhibited
8-I14: mouse anti-α11β1 mAb; VH SEQ ID NO: 109, VL SEQ ID NO: 110 (antibody, V domains shown) VH: EVQLQQSGPELVKPGASVKKSCKASGYTFTDYYMHWVKQKPGQGLEWIGKIYPGSGNTHYNEKFKGKATLTADKSSSTAYMQLSSLTSEDSAVYFCATNYYGYRAMNYWGQGSSVTVSS VL: DIHLTQSPSSLSASLGERISLTCRASQDIYISLNWFQQKPDGTIKLLIYGTSSLDSGVPKRFSGSRSGSDYSLTISSLESEDFADYYCLQYASSPYTFGGGTKLEIK	inhibited
